- System: MS2 coat protein
- TEST: apparent KD of MS2 coat protein; designed switch direction (-1 OFF switch, 1 ON switch): -1; higher = weaker reporter binding
- RUN CONDITIONS: input ligand: none
# apparent KD of MS2 coat protein listing for each entry below
REPORTED ENDPOINT: apparent KD of MS2 coat protein (nM)

INSERT INTO results (seq_string, reported_endpoint, experimental_value) VALUES
  ('GUUAUCGCAGGAUAUUAGUACUUGUACAUGAGGAUCACCCAUGUUUAUUGGGACUAAGAAUAAGAAGGGCGAUGAA [JR_Ex5_Sub004] (Eterna round: R97, puzzle: Exclusion 5)', 'apparent KD of MS2 coat protein', 17.8),
  ('AAGCACCAUGUGAGGAUAUGCCACGGAACCGAUGGGCAGAAGGCACAUGAGGAUCACCCAUGUGACCGGUGGAU [Eternabot (Original) Solution 48] (Eterna round: R97, puzzle: Brourd''s mod of Exclusion 4)', 'apparent KD of MS2 coat protein', 44.6),
  ('GGGUGCAGGCUGAGAUCCUACAUGAGGAUCACCCAUGUGGUCCGGUGACGUGAGUCACCGGACUUAGCUCGUCUUGU [salish99_S_TOV1_R5_007] (Eterna round: R97, puzzle: Sensor, turn-off variant 1)', 'apparent KD of MS2 coat protein', 192);

---

- System: MS2 coat protein
- TEST: apparent KD of MS2 coat protein; higher = weaker reporter binding
- RUN CONDITIONS: Eterna round: R107; input ligand: none
REPORTED ENDPOINT: apparent KD of MS2 coat protein (nM)

INSERT INTO assay_data (seq_string, experimental_value) VALUES
  ('ACAUGAGGAUCACCCAUGUCAUGAGGUUCACGAGGACCGGUACGGCCGCCACUCGACAUGAGGGUCACCCGUGAAGGGAACACCC [xdmullin]', 22.7),
  ('ACAUGAGGAUCACCCAUGUGUGUAAGUCCUCGAGGACCGGUACGGCCGCCACUCGAACGAGUGAAGCCUGAUACUAAGUAUCAGG [SS Trp A s5]', 15.4),
  ('AAUUUAAACGGAAGGAGCGUCACUUAAUAUCAACAUGAGGAUCACCCAUGUAAGGGUUGUAGACAGGUAGGUCGCCGUCAUUUGA [JR_AAArginiB_Sub023]', 39.2);

---

- Tested on: K4 kissing-loop RNA reporter
- TEST: apparent KD of K4 kissing-loop reporter; higher = weaker reporter binding
- RUN CONDITIONS: Eterna round: R107; input ligand: FMN 200 uM
apparent KD of K4 kissing-loop reporter of 200 nM or higher: Condition met. Under 200 nM: Condition not met.

INSERT INTO assay_data (seq_string, label) VALUES
  ('UUUGGUUUCUCGGCCGCCACUCGUUGUCUAUGGGCUUCAGGGAUAUAGUGAUGUUAUGUAUAGAAGAGGACCGGGAGAAGGUUUU [ExTryptoB.Dv]', 'Condition met'),
  ('UGACUGGACUGAAGGAGCGAGCGAGACAAAGUCUCGGAAAUUCAGUGAUGUUGAUAUAUAACUCAGGUAGGUCGCAGUCUAGUCU [ArgBS 6 #SwitchBubble #StaticStem]', 'Condition met'),
  ('UUCGAUCAGUGAUGUUGAUCAUCAGUCGAAGGAGCGCUAGAGAUAGCAGGUAGGUCGCGACUGCAAGGUGUGAGAACACCUCGAA [Arg A SS t9a]', 'Condition met'),
  ('GCUAUGGUUGGAAGGAGCGUUGAAUUGUUAGUAAGAGUGAUGUUCGAUAGUGGACAGUUGUAGCAGGUAGGUCGCCAACUAUAGC [KL-Arg B28]', 'Condition met'),
  ('AUAUUAAGCGGAAGGAGCGGCUGAACCAGUGAUGUUGGUUAAUCCAAGUGAUGUUGGAAAAGCCAGGUAGGUCGCCGCUAUAUAU [Same State Arg B GF 1]', 'Condition met'),
  ('GGAGGAGAAUAUGAUACCAGCAGAGAGAGAGAGGAAGUAUAGUGAUGUUAUAUGAGAGAAUGCCCUUGGCAGCAUAAGAAGAAGG [SSTheophylB.A]', 'Condition not met'),
  ('GUUACGCAUGGAAGGAGCGCACUCCGGUUGAUCGACACAGUGAUGUUGUGGUUCAUUCGAAUGCAGGUAGGUCGCCAUGUGUAAC [Ex Arginine B K4 15]', 'Condition met'),
  ('GGAUCCGCCAGUGAUGUUGGAGAAAACUCCAAGGAUAUGACGAAAGUCAGAAGGUGGUAGACUGGACAAAGUCCGGUCGGAUCCA [FmnA 26 #SwitchBubble #K4Early]', 'Condition met'),
  ('GUCCCAGUGAUGUUGGUAGGCGAGCGGGAUACCAGCGAAGACUCACGCCCUUGGCAGCCCACAUAUCCCACGUAGGGAUUAGCUC [Same State - Theophylline A (Freestyle 20)]', 'Condition met'),
  ('GCCGUACGCAUGGAUACCAGCAAUUAUGCUCGUAUCCUAGUGAUGUUAGUGGCGAAUAUUUGCCCUUGGCAGCCAUGCGUACGGC', 'Condition met'),
  ('ACCAUUUUACCGGCAGUAGUGAUGUUACUCCGAGGACCGGUACGGCCGCCACUCGCGAACGUAGGGUCGCGCACUCAAAGAGUGC', 'Condition not met'),
  ('AUAGGAGUGAUGUUCCUUAGUCUCUCCGAUACCAGUAUGGAAACAUACCCUUGGCAGCGGUAGACCGCAGAUUAGGAAACUAGUC [Theophylline A K4 3]', 'Condition met'),
  ('UGCAGUGAUGUUGCUAUUUGUCUUGAUUAACGAGGACCGGUACGGCCGCCACUCGAUUUCUCUCUAAUCGAGUAUGUUGUUUAGU [#19 K4 Tryptophan A Exclusion]', 'Condition not met'),
  ('CCACCAAGCACGGCCGCCACUAAAUCUGCAAGUAACCUAAAGUGAUGUUUUAUCUUGCGUCAGACUAGGACCGGGUGUCAAGUUA [theeternabot_sameState_KL_Trp_B_45]', 'Condition met'),
  ('AAGCCAGAGAUUGCUGCGGGUUCCAGAGAUACCAGCCGUAUUGAAGGCCCUUGGCAGCUCGAGUGAUGUUCGAGCCGUCUCCGGC [Onte]', 'Condition not met'),
  ('UGGAUAUAGUGAUGUUAUAUAGAGAUGGAUACCAGUUUAGAGAAGAGCCCUUGGCAGCCGAAAGAAGUAUCAUUAGAGAAGAAUG [ExTheophyl.Al]', 'Condition met'),
  ('AAUAACUAGUAUUUUUUUAAUAAUACAGAUACCAGUGAUAAUAAACACCCUUGGCAGCUGAUCGAGUGAUGUUCGUUUAUUUUAA [JR_SSTheophyA_Sub003]', 'Condition not met'),
  ('UGUCAUUGGUCGGCCGCCACUAUAAUAAAAGAGUGAUGUUCUAAAAGACGGACAAAAGUCUGUCAUAGGACCGGGACCGAUGACU [TrypBS 25 #SwitchBubble #StaticStem]', 'Condition met'),
  ('UGAUACCAGACUGAUACCAGCGAGUGAUGUUUGCUGAUCUAAAGCAGUCAAAGACUGCCUUGCCCUUGGCAGCAGUCUGGUAUCU [TheoBX 26 #SwitchBubble #StaticStem]', 'Condition met'),
  ('UGGAUAUAGUGAUGUUAUAUAGAGAUGGAUACCAGUUAAGAGAAUAGCCCUUGGCAGCCGAAAGAAGUAUCAUUAGAGAAGAAUG [ExTheophyl.Ad]', 'Condition met'),
  ('UUAUACAACUGAAGGAGCGCCAGUGAUGUUGGCGUGACGACUGCUUCCUUCGCCGAGUCCUGGCAGGUAGGUCGCAGUUGCUGAA [Oratgere]', 'Condition not met');

---

- Tested on: K4 kissing-loop RNA reporter;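 also: bound reporter read as fluorescence of individual clusters on recovered sequencing chips by microscopy, with normalized cluster intensities fitted with a binding model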
- TEST: apparent KD of K4 kissing-loop reporter; higher = weaker reporter binding
- RUN CONDITIONS: Eterna round: R107; input ligand: theophylline 20 uM
REPORTED ENDPOINT: apparent KD of K4 kissing-loop reporter

INSERT INTO results (seq_string, experimental_value) VALUES
  ('GUUACGCAUGGAAGGAGCGCAGGCUCAACAAAUAGCUCAGUGAUGUUGAGCAUAUUAAAACUGCAGGUAGGUCGCCAUGUGUAAC [Ex Arginine B K4 23]', '671 nM'),
  ('AAUAAAAUCACGGCCGCCACUGAUUUUUUUAUUAGGAGUGAUGUUCCUAUGACUAUAUUAUUUAACAGGACCGGGUGAAUAUUUA [JR_SSTryptoB_Sub023]', '93.3 nM'),
  ('AACCGCCAGUCGGCCGCCACUCACAGCAGUGAUGUUGCUGAAAAUCUAAAAGAGUGAUGUUCUUAGAGGACCGGGACUCCAGGCG [Same State Tryptophan B GF 5]', '56.7 nM'),
  ('GGUUUAUAGGAGGAUACCAGUACAAAUAAAGUACAUUAAUAGUAGAGUGAUGUUCUAAAGUACCCUUGGCAGCUUAGAUUAAGUU [ExTheophylB.G]', '188 nM'),
  ('AGUCCACUCUAAAGAGUGGACCUAAGGGAUACCAGUGAUGUUGGUCACCCUUGGCAGCCCUCUGUCAUCGAUAAAGAUGGCAGGA', '137 nM'),
  ('UUUCAAAUUUAAGGAUAUUAGAUACCAGGAAAGGAGUGAUGUUCCGUGCUACGAUAGUGCUAGGGCUAAGAAGGUAAGUCUCGAG [theeternabot_sameState_KL_FMN_B_37]', '89.6 nM');

Origin of the recorded values: the supplement of paper PMC9170038
